Provide the reported Arrhythmia Reversal Time of each item.
test system: arrhythmia produced in dogs or cats by ouabain; test: anti-arrhythmic activity: preventing or reversing the arrhythmia produced by ouabain; format: in vivo; details: dogs or cats, ouabain arrhythmia, amount compound 5 mg/kg
Numeric answer only, unit min assumed.

Could you share which Arrhythmia Reversal Time value was measured for COc1ccc(C2CCCCC2(O)C(C)CN(C)C)cc1.Cl (stereo not shown) ? 30

Also need CC(CN1CCCC1)C1(O)CCCCC1c1ccccc1 (stereo not shown) , thanks. 5

Same for CC(N)C1(O)CCCCC1c1ccccc1.Cl (stereo not shown) 5

// next record COc1ccc(C2CCCCC2(OC(C)=O)C(C)CN(C)C)cc1OC.Cl (stereo not shown) 30

###

Kindly supply the reported ED50 values for the records listed here.
experiment: phenylbenzoquinone (PBQ) writhing method (analgesia in mice, Sigmund et al); assay type: in vivo; settings: Mus musculus, po, mice, phenylbenzoquinone writhing, oral route; read-out: Analgesic Tests ED50 PBQ P.O.
Where a name gives a salt, the structure may show the parent alone.

Fill blank: measured ED50 of the compound COc1ccc(C2CCCCC2(OC(C)=O)C(C)CN(C)C)cc1 (centres unmarked) [Example XXV, hydrochloride] is ____. > 100 mg/kg

Query CCOC(=O)C1(c2ccccc2)CCN(C)CC1 [Meperidine, reference compound] next 18 mg/kg

Also C=CCN(CC=C)CC(C)C1(OC(C)=O)CCCCC1c1ccccc1 (centres unmarked) [Example XVI] , if possible. > 30 mg/kg

Repeat for the following compound: CC(=O)OC1(C(C)N(C)C)CCCCC1c1ccccc1 (centres unmarked) [XXVIII] > 30 mg/kg

Try this compound too: CC(=O)OC1(C(C)CN(C)C)CCCCC1c1ccc(O)cc1.Cl (centres unmarked) [XXXI] > 100 mg/kg

###

test: phenylbenzoquinone (PBQ) writhing method (analgesia in mice, Sigmund et al); type: in vivo; details: Mus musculus, po, mice, phenylbenzoquinone writhing, oral route; read-out: Analgesic Tests ED50 PBQ P.O.
Readout Type: ED50

What value of ED50 has been reported for the following compound? COc1ccc(C2CCCCC2(O)C(C)CN(C)C)cc1.Cl (stereo not shown) > 100 mg/kg

Moving on to CC(=O)OC1(CCN(C)C)CCCCC1c1ccccc1 (stereo not shown) > 30 mg/kg

Now the same for CNC(C)C1(O)CCCCC1c1ccccc1.Cl (stereo not shown) > 100 mg/kg

Proceed to CC(CN1CCCC1)C1(O)CCCCC1c1ccccc1 (stereo not shown) > 100 mg/kg
